Just for reference, paper PMC6010021 is where these values come from.

# tested target: TweCAδ (Conticribra weissflogii, UniProt Q5U9J1)
# Construct: gene ca1; recombinant protein produced as reported earlier by the group
# Sequence (Q5U9J1 1-281): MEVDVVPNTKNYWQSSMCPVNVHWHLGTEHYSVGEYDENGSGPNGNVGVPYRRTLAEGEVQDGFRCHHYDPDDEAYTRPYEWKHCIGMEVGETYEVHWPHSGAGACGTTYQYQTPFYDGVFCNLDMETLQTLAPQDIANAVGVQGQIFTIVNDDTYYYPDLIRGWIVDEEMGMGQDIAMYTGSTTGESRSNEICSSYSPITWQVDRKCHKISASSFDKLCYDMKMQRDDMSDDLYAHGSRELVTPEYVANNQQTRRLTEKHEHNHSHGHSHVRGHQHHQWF
# assay text: stopped-flow CO2 hydrase assay
# Assay type: biochemical
# setup conditions: read-out: RR^1NCS2M (16-36) / KI (nM)^a / TweCAδ
We begin with a simple list: items and their reported Ki.
# unit: nM | format: bare number

[[record]]
compound = "O=C(O)[C@@H]1CCCN(C(=S)S)C1 [compound 27, DTC 27]"
experimental_result = 93.6


Query: Specify measured Ki for O=C(S)N1CCN(c2cccc(Cl)c2)CC1 [compound 13, MTC 13] .
Response: 1510

Query: Specify measured Ki for CC(=O)NC1CCCN(C(=S)S)C1 (stereo not shown) [compound 30, DTC 30] .
Response: 783

Query: Specify measured Ki for O=C(CN1CCN(C(=S)S)CC1)NC1CCCCC1 [compound 34, DTC 34] .
Response: 791

====

We begin with a simple list: items and their reported Ki.
# tested target: TweCAδ (Conticribra weissflogii)
# Construct: gene ca1; recombinant protein produced as reported earlier by the group
# assay text: stopped-flow CO2 hydrase assay
# Assay type: biochemical
# setup conditions: read-out: RR^1NCS2M (16-36) / KI (nM)^a / TweCAδ
# unit: nM | format: bare number

In the examples that follow, each entry is paired with its recorded Ki.
[[record]]
compound = "O=C(CN1CCN(C(=O)S)CC1)NC1CCCCC1"
unit_of_measure = "nM"
experimental_result = 129

[[record]]
compound = "CCCN(CCC)C(=O)S"
unit_of_measure = "nM"
experimental_result = 807

[[record]]
compound = "CN(C)CCNC(=S)S"
unit_of_measure = "nM"
experimental_result = 8410

[[record]]
compound = "OCCCCCNC(=S)S"
unit_of_measure = "nM"
experimental_result = 8600

[[record]]
compound = "O=C(O)[C@H]1CCCN(C(=S)S)C1"
unit_of_measure = "nM"
experimental_result = 556


Query: Output reported Ki of the compound CCCCN(CCCC)C(=O)S on TweCAδ (Conticribra weissflogii).
Response: 1140

Query: Output reported Ki of the compound O=C(O)C1CCN(C(=S)S)CC1 on TweCAδ (Conticribra weissflogii).
Response: 8980

Query: Output reported Ki of the compound COc1ccc(CCNC(=O)S)cc1OC on TweCAδ (Conticribra weissflogii).
Response: 67.7

Query: Output reported Ki of the compound OCCCNC(=S)S on TweCAδ (Conticribra weissflogii).
Response: 8690

Query: Output reported Ki of the compound O=C(O)C1CCCN(C(=S)S)C1 (stereo not drawn) on TweCAδ (Conticribra weissflogii).
Response: 8430

Query: Output reported Ki of the compound S=C(S)NCCc1ccccc1 on TweCAδ (Conticribra weissflogii).
Response: 897

Query: Output reported Ki of the compound CCCCN(CC)C(=O)S on TweCAδ (Conticribra weissflogii).
Response: 783

Query: Output reported Ki of the compound NS(=O)(=O)c1ccc(CCNC(=S)S)cc1 on TweCAδ (Conticribra weissflogii).
Response: 704

Query: Output reported Ki of the compound CN1CCN(NC(=O)S)CC1 on TweCAδ (Conticribra weissflogii).
Response: 487

Query: Output reported Ki of the compound S=C(S)N[C@@H]1CN2CCC1CC2 on TweCAδ (Conticribra weissflogii).
Response: 7990

Query: Output reported Ki of the compound O=C(S)NCCc1ccccc1 on TweCAδ (Conticribra weissflogii).
Response: 997

Query: Output reported Ki of the compound O=C(S)N1CCN(c2ccc(C(F)(F)F)cc2)CC1 on TweCAδ (Conticribra weissflogii).
Response: 1150

Query: Output reported Ki of the compound OCCCCNC(=S)S on TweCAδ (Conticribra weissflogii).
Response: 7170

Query: Output reported Ki of the compound O=C(S)N1CCN(c2ccc(F)cc2)CC1 on TweCAδ (Conticribra weissflogii).
Response: 1500
